- Tested on: Mycobacterium smegmatis
- measurementNotes: In vitro Mycobacterium smegmatis growth inhibition assay (suspension turbidity, 96 hours)
- Type: cell-based
- testConditions: concentration to inhibit 50% of Mycobacterium smegmatis growth, four parameter curve fit
pIC50: −log10 of the molar value.
measurementKind: pIC50

structure=Oc1ccc(Br)cc1C=NNc1ccccn1 measurementkind=pIC50 number=4.86
